// provenance: patent US20130190314A1

Listing: melting point of selected compounds

Example cases with answers are listed next.
{"Compound": "CN1CCN(c2ccc3nc(-c4ccsc4)c(-c4ccncc4)n3n2)CC1 [Compound 18]", "Test readout": "melting point", "Assay value": "177 to 179 °C"}
{"Compound": "c1csc(-c2nc3ccc(N4CC5CCCNC5C4)nn3c2-c2ccncc2)c1 (stereo not drawn) [Compound 7]", "Test readout": "melting point", "Assay value": "176 to 179 °C"}
{"Compound": "CC(C)(O)CN1CCN(c2ccc3nc(-c4ccsc4)c(-c4ccncc4)n3n2)CC1 [Compound 19]", "Test readout": "melting point", "Assay value": "178 to 180 °C"}
{"Compound": "Cc1ccc(-c2nc3ccc(N4C[C@H]5CN(C)C[C@H]5C4)nn3c2-c2ccncc2)o1 [Compound 33]", "Test readout": "melting point", "Assay value": "178 to 181 °C"}
{"Compound": "Cc1ccc(-c2nc3ccc(N4CCN(CC(C)(C)O)CC4)nn3c2-c2ccncc2)o1 [Compound 29]", "Test readout": "melting point", "Assay value": "147 to 149 °C"}

Prompt: Name the reported melting point value associated with the compound C[C@@H]1CN(c2ccc3nc(-c4ccc(Cl)s4)c(-c4ccncc4)n3n2)C[C@H](C)N1 [Compound 13]
Response: 220 to 222 °C

Prompt: Check c1csc(-c2nc3ccc(N4CCNCC4)nn3c2-c2ccncc2)c1 [Compound 1] too.
Response: 217 to 220 °C

Prompt: Proceed to OCCN1CCN(c2ccc3nc(-c4ccc(Cl)s4)c(-c4ccncc4)n3n2)CC1 [Compound 14]
Response: 216 to 218 °C

Prompt: Would you mind doing CC(C)(O)CN1CCN(c2ccc3nc(-c4ccoc4)c(-c4ccncc4)n3n2)CC1 [Compound 31] as well?
Response: 139 to 149 °C

Prompt: Proceed to c1csc(-c2nc3ccc(N4CCC5(CCCNC5)CC4)nn3c2-c2ccncc2)c1 [Compound 8]
Response: 184 to 189 °C
